# target.or.test.system: human dopamine D3 receptor (hD3R) (Homo sapiens)
# Sequence (P35462 whole entry): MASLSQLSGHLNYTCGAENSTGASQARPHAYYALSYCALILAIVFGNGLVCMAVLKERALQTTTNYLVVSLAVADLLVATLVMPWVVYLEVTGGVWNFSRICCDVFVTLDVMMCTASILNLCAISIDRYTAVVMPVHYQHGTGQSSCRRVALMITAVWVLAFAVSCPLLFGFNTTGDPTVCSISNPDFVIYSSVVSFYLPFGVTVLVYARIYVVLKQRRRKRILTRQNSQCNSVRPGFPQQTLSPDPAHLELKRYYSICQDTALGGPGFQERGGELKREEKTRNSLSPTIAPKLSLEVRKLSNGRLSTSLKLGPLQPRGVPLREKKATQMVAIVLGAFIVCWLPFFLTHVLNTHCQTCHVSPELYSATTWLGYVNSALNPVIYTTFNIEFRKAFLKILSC
# experiment: Human D3 receptor binding assay ([^3H]-7-OH-DPAT)
# condition.info: CHO cells expressing hD3R, geometric mean of 2-5 determinations unless marked b (single determination), read-out: hD3 in CHO cells Ki
Could you please report measured pKi for the items listed next?
// pKi is dimensionless: -log10 of concentration (M)

pKi reported for this compound `CCN1CCc2cc(NS(=O)(=O)c3ccc([C@H]4C[C@H](OCCF)C4)cc3)c(OC)nc2CC1` : 8.76

# pKi (compound: `CCO[C@H]1C[C@@H](c2ccc(S(=O)(=O)Nc3cc4c(nc3OC)CCN(C)CC4)cn2)C1` ) is 7.63

`COc1nc2c(cc1NS(=O)(=O)c1cnc(OC3CCCC3)nc1)CCN(C)CC2` has a reported pKi of 8.45

Lab book: pKi of `COc1nc2c(cc1NS(=O)(=O)c1ccc(OC(C)(C)C)nc1)CCN(C)CC2` noted as 8.73

###

Please go through the items and note down their Ki.
# target.or.test.system: human dopamine D3 receptor (hD3R) (Homo sapiens)
# experiment: Human D3 receptor binding assay ([^3H]-7-OH-DPAT)
# condition.info: CHO cells expressing hD3R, geometric mean of 2-5 determinations unless marked b (single determination), read-out: hD3 in CHO cells Ki
# do not omit the unit; it follows the number

Note to self: Ki recorded for `CCN1CCc2cc(NS(=O)(=O)c3ccc(C4CC4)cc3)c(OC)nc2CC1` was 0.89 nM

Notebook: `COc1nc2c(cc1NS(=O)(=O)c1ccc([C@H]3CCCCO3)c(F)c1)CCN(C)CC2` , Ki read as 1.27 nM

Short answer for `CCN1CCc2cc(NS(=O)(=O)c3ccc([C@H]4C[C@H](OC)C4)cc3)c(OC)nc2CC1` : Ki was 1.26 nM

The reported Ki of the compound `COc1nc2c(cc1NS(=O)(=O)c1ccc([C@]3(F)C[C@H](OC)C3)cc1)CCN(C)CC2` was 1.16 nM

###

# target.or.test.system: human dopamine D3 receptor (hD3R) (Homo sapiens)
# experiment: Human D3 receptor binding assay ([^3H]-7-OH-DPAT)
# condition.info: CHO cells expressing hD3R, geometric mean of 2-5 determinations unless marked b (single determination), read-out: hD3 in CHO cells Ki
Provide the recorded Ki for the entries that follow.
Field format: number, assumed nM, no unit text.

The recorded Ki for `CCO[C@H]1C[C@H](c2ccc(S(=O)(=O)Nc3cc4c(nc3OC)CCN(C)CC4)cc2)C1` is 2.64

Entry under test: `COc1nc2c(cc1NS(=O)(=O)c1ccc(C3(F)CCCC3)nc1)CCN(C)CC2` . Its Ki was 3.31

The recorded Ki for entry `COc1nc2c(cc1NS(=O)(=O)c1ccc([C@H]3CCCCO3)cc1)CCN(C)CC2` equals 1.39

For `COc1nc2c(cc1NS(=O)(=O)c1ccc(C3(OC)CCCC3)nc1)CCN(C)CC2` the compound record lists Ki as 6.35

Kindly note the recorded Ki for `COc1nc2c(cc1NS(=O)(=O)c1ccc(C3CCCCC3)nc1)CCN(C)CC2` , which is 1.75

Sure, the documented Ki for `CCN1CCc2cc(NS(=O)(=O)c3ccc([C@@H]4CCCCO4)c(F)c3)c(OC)nc2CC1` is 1.79

Noted for CCN1CCc2cc(NS(=O)(=O)c3ccc(C4CCCCO4)cc3)c(OC)nc2CC1 (single isomer, unassigned) [Example 73] : its Ki reads 4.41

Kindly note the recorded Ki for `COc1nc2c(cc1NS(=O)(=O)c1ccc(C3CCOCC3)cc1)CCN(C)CC2` , which is 1.53

Source: patent US10590128B2
